Target: rat NGF (rat, UniProt P25427 122-241)
Sequence (P25427 122-241 limits assumed): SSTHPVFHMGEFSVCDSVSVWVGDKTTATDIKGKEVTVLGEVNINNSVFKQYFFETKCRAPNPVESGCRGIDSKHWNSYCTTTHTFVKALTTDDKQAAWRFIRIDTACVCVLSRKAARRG
Experiment: cell-based or functional assay
Outcome Measure: IC50 (15 pM NGF), NGF-dependent survival of mouse E13.5 trigeminal neurons

Worked examples follow.
Fab E3 (Fab, V domains shown) VH: QVQLQESGPGLVKPSETLSLTCTVSGFSLIGYDLNWIRQPPGKGLEWIGIIWGDGTTDYNSAVKSRVTISKDTSKNQFSLKLSSVTAADTAVYYCARGGYWYATSYYFDYWGQGTLVTVS VL: DIQMTQSPSSLSASVGDRVTITCRASQSISNNLNWYQQKPGKAPKLLIYYTSRFHSGVPSRFSGSGSGTDFTFTISSLQPEDIATYYCQQEHTLPYTFGQGTKLEIKR: < 8.3 pM
H19-L129 (Fab, V domains shown) VH: QVQLQESGPGLVKPSETLSLTCTVSGFSLIGYDLNWIRQPPGKGLEWIGIIWGDGTTDYNSAVKSRVTISKDTSKNQFSLKLSSVTAADTAVYYCARGGYYYGTSYYFDYWGQGTLVTVS VL: DIQMTQSPSSLSASVGDRVTITCRASQSISNNLNWYQQKPGKAPKLLIYYTSRFHSGVPSRFSGSGSGTDFTFTISSLQPEDIATYYCQQSKTLPYTFGQGTKLEIKR: 31 pM
3C (Fab, V domains shown) VH: QVQLQESGPGLVKPSETLSLTCTVSGFSLIGYDLNWIRQPPGKGLEWIGIIWGDGTTDYNSAVKSRVTISKDTSKNQFSLKLSSVTAADTAVYYCARGGYWYATSYYFDYWGQGTLVTVS VL: DIQMTQSPSSLSASVGDRVTITCRASQSISNNLNWYQQKPGKAPKLLIYYTSRFHSGVPSRFSGSGSGTDFTFTISSLQPEDIATYYCQQERTLPYTFGQGTKLEIKR: 31.6 pM

Consider the record given below.
Find the recorded IC50 (15 pM NGF), NGF-dependent survival of mouse E13.5 trigeminal neurons belonging to 8L2-6D5 (Fab, V domains shown) VH: QVQLQESGPGLVKPSETLSLTCTVSGFSLIGYDINWIRQPPGKGLEWIGMIWGDGTTDYNSALKSRVTISKDTSKNQFSLKLSSVTAADTAVYYCARGGYYYGTSYYFDYWGQGTLVTVS VL: DIQMTQSPSSLSASVGDRVTITCRASQDISNHLNWYQQKPGKAPKLLIYYISRFHSGVPSRFSGSGSGTDFTFTISSLQPEDIATYYCQQSKTLPYTFGQGTKLEIKR and report it. 730 pM
